Consider the following sequences and their measured protein stability index readings.
- TEST_PROTOCOL: protein stability index of a GFP-peptide fusion (GPS, HEK-293T) (PSI 1-6); higher = more stable;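 further: 24-mer peptide tiles fused after GFP, lentivirally expressed, FACS-sorted into six equal bins by GFP/DsRed ratio, decoded by Illumina sequencing, PSI is the read-weighted mean bin number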
- CONDITION_CONTEXT: treatment: MLN4924 1 uM, 8 h; c terminus: a fixed tail appended
OUTCOME_MEASURE: protein stability index

RESIDUE_SEQUENCE	OUTCOME_MEASURE	MEASUREMENT
NMPETLPNNSCYSAGIAKLEEGDE [TNFSF13B]	protein stability index	5.5
TPTSPECDYSQYFKTIEELRDKIM [KRT15]	protein stability index	3.6
RGIFVVRGENVVLLGEIDLEKESD [LSM1]	protein stability index	2.31
ENRGIVVLGINRAYGKNSLSKNLI [AUH]	protein stability index	2.44
SEHLKQRREVAKTVFCLVVIFALC [EDNRA]	protein stability index	3.31
RWNKVKMVVSREEVELAYQEAMFN [SEPHS2]	protein stability index	2.66
RTLSLIVCTFTYLLVGAAVFDALE [KCNK9]	protein stability index	3.19
IQYNRRQLLILLQNCTDEGEREAI [POP5]	protein stability index	2.78
SCAWSLNIQANNCFSTGLSRRVLL [DCAF4]	protein stability index	2.35
FRCPTCRHEVIMDRHGVYGLQRNL [TRIM63]	protein stability index	2.83
GVPGQPLNFKAEPESETSILLSWT [PTPRD]	protein stability index	2.98
MGGPFSYVYFFCTVPEILVHNIVI [TMEM106C]	protein stability index	3.19
VMAYDRYMAICKPLHELITMNRRV [OR4A15]	protein stability index	2.23
